- Experiment Notes: Stability in rat hepatic microsomes
- Assay type: in vitro ADME
- Protocol Conditions: Rat, 1.8 mg/ml hepatic microsomes, NADPH dependent
Measured Metric: half-life (min)
One number for each entry, in min.

Inquiry: Fill in reported half-life for this entry: CCOc1ccc(-c2nc(-c3cccc4c3CCC4NCCO)no2)cc1OCC (stereo not shown) [compound 236]
Reply text: 16

###

- Target Or Test System: S1P1 (Homo sapiens (Human), UniProt P21453)
- Sequence (P21453 whole entry): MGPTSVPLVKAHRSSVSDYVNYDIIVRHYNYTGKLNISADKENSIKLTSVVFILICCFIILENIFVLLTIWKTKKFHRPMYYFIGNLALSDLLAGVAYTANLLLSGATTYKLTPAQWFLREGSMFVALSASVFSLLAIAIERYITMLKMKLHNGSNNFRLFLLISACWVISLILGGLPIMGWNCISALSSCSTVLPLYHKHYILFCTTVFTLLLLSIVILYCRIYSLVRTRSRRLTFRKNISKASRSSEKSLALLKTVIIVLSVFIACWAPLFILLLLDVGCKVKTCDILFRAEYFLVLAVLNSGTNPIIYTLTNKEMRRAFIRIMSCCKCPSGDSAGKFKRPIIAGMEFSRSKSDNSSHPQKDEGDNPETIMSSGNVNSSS
- Experiment Notes: S1P1 agonist assay (Ec50 S1P1Ag)
- Type: cell-based
Record form. Attribute: pEC50. Fill in for each entry.
Answers are plain numbers, as −log10 of the molar value.

Consider the reported pEC50 for these molecules:
COc1cc(-c2noc(-c3ccnc(C)c3)n2)ccc1C    5.48
CCOc1ccc(-c2nc(-c3cccc4[nH]cc(CNC(C)(C)CO)c34)no2)cc1OCC    6.20
CC(C)(C)c1cc(-c2nc(-c3ccncc3)no2)cc(C(C)(C)C)c1    6.81

Below are 6 molecules. Give each one its pEC50.
1. CCOc1ccc(-c2nc(-c3cccc4c3CCC4NCCN(CC)CC)no2)cc1OCC (stereo not drawn)
2. CCOc1ccc(-c2nc(-c3ccnc(C(=O)NCCO)c3)no2)cc1OCC
3. Nc1cc(-c2noc(-c3ccc(-c4ccccc4)c(C(F)(F)F)c3)n2)ccn1
4. CCOc1ccc(-c2nc(-c3cccc4c3CCC4O)no2)cc1[N+](=O)[O-] (stereo not drawn)
5. CCOc1ccc(-c2nc(-c3ccnc(C(=O)O)c3)no2)cc1OCC
6. CC(C)Cc1ccc(C(C)c2nc(-c3ccncc3)no2)cc1 (stereo not drawn)

Reply text:
1. 9.15
2. 7.58
3. 9.11
4. 6.65
5. 7.02
6. 6.95

Below are 3 molecules. Give each one its pEC50.
1. CCOc1ccc(-c2nc(-c3ccc4c(c3)NCC4)no2)cc1OCC
2. CCOc1ccc(-c2cc(-c3ccncc3)no2)cc1OCC
3. COc1cc(-c2noc(-c3ccnc(Cl)c3)n2)ccc1C

Reply text:
1. 8.38
2. 6.95
3. 6.24

###

- Target Or Test System: S1P1 (Homo sapiens (Human), UniProt P21453)
- Experiment Notes: S1P1 agonist assay (Ec50 S1P1Ag)
- Format: cell-based
Measured Metric: pEC50
Numbers only, as −log10 of the molar value.

Consider the reported pEC50 for these compounds:
CCOc1ccc(-c2nc(-c3cccc4[nH]cc(CN(C)CCO)c34)no2)cc1OCC    5.85
CCOc1cccc(-c2nc(-c3ccnc(N)c3)no2)c1    6.50
CCOc1ccc(-c2nc(-c3ccc4[nH]cc(CNCCO)c4c3)no2)cc1OCC    6.06
CCOc1ccc(-c2nc(-c3ccnc(N)c3)no2)cc1OCC    8.77

Attention now turns to another entry.
Inquiry: Report the value of pEC50 obtained on S1P1 (Homo sapiens (Human), UniProt P21453) for "CCOc1ccc(-c2nc(-c3cccc(CN4CCCC4)c3)no2)cc1OCC" .
Reply text: 6.35

###

Record form. Attribute: EC50. Fill in for each entry.
- Target Or Test System: S1P3 (Homo sapiens (Human), UniProt Q99500)
- Sequence (Q99500 whole entry, species assumed): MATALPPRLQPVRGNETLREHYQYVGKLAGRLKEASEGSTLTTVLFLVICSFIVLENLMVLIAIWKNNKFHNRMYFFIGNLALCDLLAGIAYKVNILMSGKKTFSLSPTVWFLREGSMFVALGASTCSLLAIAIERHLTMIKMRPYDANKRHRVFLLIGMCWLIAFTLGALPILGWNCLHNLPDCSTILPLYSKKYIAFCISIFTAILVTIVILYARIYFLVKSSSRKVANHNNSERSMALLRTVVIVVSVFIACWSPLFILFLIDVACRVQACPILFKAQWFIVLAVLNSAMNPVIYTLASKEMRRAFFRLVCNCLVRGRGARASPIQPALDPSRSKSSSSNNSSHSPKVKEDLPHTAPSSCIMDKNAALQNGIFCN
- Experiment Notes: S1P3 agonist assay (Ec50 S1P3Ag)
- Assay type: cell-based
- Protocol Conditions: unit μM; read-out: Ec 50 (S1P3Ag)
One number for each entry, in µM.

Consider the reported EC50 for these compounds:
CCOc1ccc(-c2nc(-c3ccc(CO)nc3)no2)cc1OCC    13.5
Cc1cncc(-c2noc(-c3ccc(-c4ccccc4)c(C(F)(F)F)c3)n2)c1    24

Below are 2 compounds. Give each one its EC50.
1. CCOc1ccc(-c2nc(-c3ccc(CN(C)C)c(C)c3)no2)cc1OCC
2. CCOc1ccc(-c2nc(-c3cccc4ccccc34)no2)cc1OCC

Reply text:
1. 10
2. 13.5

###

- Target Or Test System: UniProt:P21453
- Experiment Notes: S1P1 agonist assay (Ec50 S1P1Ag)
- Format: cell-based
Group membership follows EC50 per the scheme b0: < 30 nM; b1: ≥ 30 nM and < 500 nM; b2: ≥ 500 nM

CC(C)Oc1ccc(-c2nc(-c3cccc4c3CCC4NCCO)no2)cc1C(F)(F)F (stereo not drawn)    b0
CCOc1ccc(-c2nc(-c3cccc4[nH]ccc34)no2)cc1OCC    b0

Inquiry: Input "NS(=O)(=O)c1ccc(-c2noc(-c3cc(Cl)nc(Cl)c3)n2)cc1" ; output its category
Reply text: b2

Inquiry: Input "CCOc1ccc(-c2nc(-c3ccc(CN4C[C@H](O)C[C@H]4C(=O)N(C)C)cc3C)no2)cc1OCC" ; output its category
Reply text: b1

Inquiry: Input "CCOc1ccc(-c2nc(-c3cccc4[nH]cc(CNCCN(C)C)c34)no2)cc1OCC" ; output its category
Reply text: b1

Inquiry: Input "CCOc1ccc(-c2nc(-c3ccc(C4=NCCN4)cc3)no2)cc1OCC" ; output its category
Reply text: b2

Inquiry: Input "CCOc1ccc(-c2nnc(-c3ccncc3)[nH]2)cc1OCC" ; output its category
Reply text: b2

Inquiry: Input "CCOc1ccc(-c2nc(-c3ccc(Br)c(C)c3)no2)cc1OCC" ; output its category
Reply text: b1

Inquiry: Input "CCOc1ccc(-c2nc(-c3ccccn3)no2)cc1OCC" ; output its category
Reply text: b1

Inquiry: Input "CCOc1cc(-c2nc(-c3ccncc3)no2)ccc1OC" ; output its category
Reply text: b1

Inquiry: Input "FC(F)(F)c1cc(-c2nc(-c3ccncc3)no2)cc(C(F)(F)F)c1" ; output its category
Reply text: b1

Inquiry: Input "CCOc1ccc(-c2nc(-c3cccc4c3CCN4CCO)no2)cc1OCC" ; output its category
Reply text: b0

Inquiry: Input "CCOc1ccc(-c2nc(-c3ccc4[nH]ccc4c3)no2)cc1OCC" ; output its category
Reply text: b0

Inquiry: Input "CCOc1ccc(-c2nc(-c3cncc(CO)c3)no2)cc1OCC" ; output its category
Reply text: b0

###

- Target Or Test System: S1P1 (Homo sapiens (Human), UniProt P21453)
- Experiment Notes: S1P1 agonist assay (Ec50 S1P1Ag)
- Type: cell-based
Measured Metric: EC50 (nM)
One number for each entry, in nM.

Consider the reported EC50 for these compounds:
CCOc1ccc(-c2nc(-c3ccc(CN4CCCC4)c(C)c3)no2)cc1OCC    35.8
CCOc1ccc(-c2nc(-c3cccc(CN(C)C)c3C)no2)cc1OCC    4.1
Cc1ccc(-c2nc(-c3ccncc3)no2)cc1C(F)(F)F    487
CCC(c1ccccc1)c1nc(-c2ccncc2)no1 (stereo not drawn)    1500
CCOc1ccc(-c2nc(-c3ccc(N4CCN(C)CC4)cc3C)no2)cc1OCC    86.3

Below are 3 compounds. Give each one its EC50.
1. CCOc1ccc(-c2nc(-c3ccc4occc4c3)no2)cc1OCC
2. CCOc1ccc(-c2noc(-c3ccncc3)n2)cc1OCC
3. CCOc1ccc(-c2nc(-c3ccc(CCO)cc3)no2)cc1OCC

Reply text:
1: 26.6; 2: 7.3; 3: 1.1

###

- Target Or Test System: S1P3 (Homo sapiens (Human))
- Experiment Notes: S1P3 agonist assay (Ec50 S1P3Ag)
- Type: cell-based
- Protocol Conditions: read-out: Ec 50 (S1P3Ag)
Record form. Attribute: EC50. Fill in for each entry.
Remember to quote the unit after the number.

FC(F)(F)c1cc(-c2nc(-c3ccncc3)no2)ccc1-c1ccccc1    5600 nM

Below are 8 molecules. Give each one its EC50.
1. CC(C)Cc1ccc(C(C)c2nc(-c3ccc(S(N)(=O)=O)cc3)no2)cc1 (centres unmarked)
2. CCOc1ccc(-c2nc(-c3cccc(CN4CCCC4)c3C)no2)cc1OCC
3. Nc1cc(-c2noc(-c3ccc(-c4ccccc4)c(C(F)(F)F)c3)n2)ccn1
4. CCOc1ccc(-c2nc(-c3ccc4[nH]ccc4c3)no2)cc1OCC
5. CCOc1ccc(-c2nc(-c3cccc4c3CCC4N(C)C)no2)cc1OCC (centres unmarked)
6. CCOc1ccc(-c2nc(-c3ccc(CCO)cc3)no2)cc1OCC
7. CCOc1ccc(-c2nc(-c3cncc(C)c3)no2)cc1OCC
8. FC(F)(F)c1ccc(-c2noc(Cc3ccncc3)n2)cc1

Reply text:
1. 1200 nM
2. 2100 nM
3. 1320 nM
4. 2000 nM
5. 13.5 nM
6. 691 nM
7. 3400 nM
8. 5100 nM

Below are 3 molecules. Give each one its EC50.
1. CCCOc1ccc(-c2nc(-c3ccncc3)no2)cc1
2. CCOc1ccc(-c2nc(-c3cccc(CNCCO)c3C)no2)cc1OCC
3. CCOc1ccc(-c2nc(-c3ccnc(N)c3)no2)cc1OCC

Reply text:
["3330 nM", "692 nM", "387 nM"]

###

- Target Or Test System: S1P3 (Homo sapiens (Human))
- Experiment Notes: S1P3 agonist assay (Ec50 S1P3Ag)
- Type: cell-based
- Protocol Conditions: read-out: Ec 50 (S1P3Ag)
pEC50: −log10 of the molar value.
Respond with t for pEC50 values of 6 and above, f for values below.

Example entries begin here.
CCOc1ccc(-c2nc(-c3cccc(CN(C)C)c3C)no2)cc1OCC    f
CCOc1ccc(-c2nc(-c3cccc4c3CCN4)no2)cc1OCC    t
COc1cc(-c2noc(-c3ccnc(C)c3)n2)ccc1C    f

Inquiry: Say whether CCOc1ccc(-c2nc(-c3cccc4c3CCC4N3CC[C@@H](O)C3)no2)cc1OCC (stereo partly drawn) shows pEC50 of 6 or more.
Reply text: f

Inquiry: Say whether CC(C)Cc1ccc(C(C)c2nc(-c3ccncc3)no2)cc1 (stereo not drawn) shows pEC50 of 6 or more.
Reply text: t

Inquiry: Say whether "FC(F)(F)c1cc(-c2nc(-c3ccncc3)no2)cc(C(F)(F)F)c1" shows pEC50 of 6 or more.
Reply text: f

These measurements were taken from patent US10544136B2.
